# assay.remarks: in vitro
# test.settings: human, hela cells, % viability
Listed here: items and their measured viability at 28.5 h, 10 µM.
Reply with the number and its unit after it.

Guide cases for viability at 28.5 h, 10 µM, answers given:
> print(dat)
                                   molecule  meas.value
1  COc1ccc([C@@]23CC[C@@H](NC(=O)c4ccc5occc5c4)C[C@@H]2N(C)CC3)cc1OC [CBK074253T]         99%
2  O=C(CSc1nc2ccccc2[nH]1)Nc1cccc(C(=O)O)c1        105%
3        O=C(O)c1cc(C(=O)O)n(Cc2ccccc2Cl)n1       88.1%
4  CCC(Oc1ccc(C)cc1)C(=O)Nc1ccc(S(N)(=O)=O)cc1 (stereo not shown)       90.5%
5          CCCCc1cc(=O)oc2cc(OCC(=O)O)ccc12       99.4%

Enquiry: Which value of viability at 28.5 h, 10 µM has been reported for Cn1ccnc1C1(O)CCN(C(=O)C2(c3ccccc3)CC2)CC1 in the records?
Return: 98.4%

Enquiry: Any idea what its viability at 28.5 h, 10 µM is? The molecule is COc1ccccc1N1CCN(CCC(=O)Nc2ccc(Br)c(C)c2)CC1
Return: 93.6%

Enquiry: Given NC(=O)c1ccc(NC(=O)c2sc3ccccc3c2Cl)cc1 , state its recorded viability at 28.5 h, 10 µM.
Return: 90.8%

Enquiry: Look up viability at 28.5 h, 10 µM: O=C(CSc1ccccn1)Nc1ccc2ccccc2c1
Return: 101%

Enquiry: Using the record for CC(C)NC(=O)CCn1c(-c2ccncc2)cc2cccnc21 , report its viability at 28.5 h, 10 µM.
Return: 111%

Enquiry: Record request: viability at 28.5 h, 10 µM value, item O=C(O)CCC(=O)NNC(=O)c1cccc(O)c1
Return: 97.8%

Enquiry: Field request: viability at 28.5 h, 10 µM | item: Cc1ccc(C#N)c(NS(=O)(=O)c2cc(C)c(Cl)cc2C)c1
Return: 96.6%

Enquiry: Name the reported viability at 28.5 h, 10 µM value associated with the molecule O/N=C1\CSCc2ncccc21
Return: 90.1%

Enquiry: For O=C(CSc1nnc(-c2ccncc2)s1)NNC(=O)c1cccs1 , what is its reported viability at 28.5 h, 10 µM?
Return: 82.3%

Enquiry: Which viability at 28.5 h, 10 µM value is on record for CN(C)CCCNC(=O)C1CCCCN1S(=O)(=O)c1ccc(C(C)(C)C)cc1 (stereo not shown) ?
Return: 101%

Enquiry: Look up viability at 28.5 h, 10 µM for this molecule: COC(=O)c1sc(-c2ccsc2)cc1N
Return: 91.8%

Enquiry: For the molecule CCn1c(C(C)C)nc2cc(NC(=O)Cc3c(C)noc3C)ccc21 , what viability at 28.5 h, 10 µM is on record?
Return: 90.3%

Enquiry: Entry CCN(CC)C(=O)c1ccc(NS(=O)(=O)c2cccc(Cl)c2C)cc1 : reported viability at 28.5 h, 10 µM = ?
Return: 108%

Enquiry: Need viability at 28.5 h, 10 µM, item O=c1ccn([C@@H]2O[C@H](CO)[C@H](O)C2O)c(=O)[nH]1 (stereo partly shown)
Return: 95.1%

Enquiry: Which measured viability at 28.5 h, 10 µM value corresponds to c1ccc(OCCOc2cccnc2N2CCNCC2)cc1 [CBK200000C] ?
Return: 90.1%

Enquiry: Any idea what its viability at 28.5 h, 10 µM is? The molecule is COc1ncc(-c2nccnc2NCc2cccnc2)c(OC)n1
Return: 101%

Enquiry: Given the molecule COc1ccc(-c2nn(-c3ccccc3)cc2/C=C2\SC(N3CCC(C(N)=O)CC3)=NC2=O)cc1 , what is its reported viability at 28.5 h, 10 µM?
Return: 105%

Enquiry: What value of viability at 28.5 h, 10 µM has been reported for the following molecule? O=C(Nc1ccsc1C(=O)O)c1ccccc1Cl
Return: 98.4%

Enquiry: # get_value(readout='viability at 28.5 h, 10 µM', item= Cn1ncc(N2CCC(CNC(=O)c3cc(F)ccc3Cl)C2)cc1=O (stereo not shown) )
Return: 92.4%

###

# assay.remarks: in vitro
# test.settings: human, hela cells, % viability
The entries below are paired with their reported viability at 28.5 h, 10 µM.

Consider the worked cases shown below.
> print(dat)
                                   molecule  meas.value
1  COC1C(O)C(CO)OC1n1cc(I)c(N)nc1=O (stereo not drawn)       92.2%
2                          OCc1ccnc2ccccc12       87.4%
3  O=S(=O)(c1ccccc1)C1CCCCO1 (stereo not drawn)       91.3%
4  Cc1nn(C)c(C)c1CCC(=O)N1CCCCC1c1ncc(-c2cccc(F)c2)[nH]1 (stereo not drawn)       89.9%
5  Cc1nn(Cc2cccc(Oc3ccccc3)c2)c(C)c1NC(=O)c1nc2ncccn2n1         89%
6  NS(=O)(=O)c1ccc(NC(=O)CSc2nc3sc4c(c3c(=O)n2-c2ccc(Cl)cc2)CCCC4)cc1       91.9%

Enquiry: Name the recorded viability at 28.5 h, 10 µM for CC(=O)Nc1ccc(S(=O)(=O)Nc2nnc(CC(C)(C)C)s2)cc1 .
Return: 87.7%

Enquiry: Name the recorded viability at 28.5 h, 10 µM for NC(=O)COc1ccccc1OCC(N)=O .
Return: 87.5%

Enquiry: Given the molecule CC(C)n1c(=O)n(CC(=O)N2CCCCC2)c2cccnc21 , what is its reported viability at 28.5 h, 10 µM?
Return: 90.6%

###

viability at 28.5 h, 10 µM values by entry
# assay.remarks: in vitro
# test.settings: human, hela cells, % viability
Numeric only. Scale: %

Field: example entries. Status: answers known.
> print(dat)
                                   compound                measure.name  measurement.unit  meas.value
1  COc1ccc2[nH]c3c(c2c1)CCN(C(C)=O)C31CCN(CCOc2ccccc2)C1 (stereo not drawn)  viability at 28.5 h, 10 µM                 %        85.5
2  COc1cccc(C(=O)N2CCC(NC(=O)c3ccc(C(F)(F)F)cc3)CC2)c1  viability at 28.5 h, 10 µM                 %         104

Enquiry: What value of measured viability at 28.5 h, 10 µM is listed for CC(=C\C(=O)O)/C(=C/c1ccc2ccccc2n1)C(=O)O [CBK278294N] ?
Return: 87.7

###

# assay.remarks: in vitro
# test.settings: human, hela cells, % viability
Items are presented alongside their recorded viability at 28.5 h, 10 µM.
Note: unit % is implicit; provide only the numeric part.

Some compounds with known viability at 28.5 h, 10 µM results, for comparison:
> print(dat)
                                   compound                measure.name  measurement.unit  meas.value
1    NCCCNC(=O)c1cc2ccccc2[nH]1 [CBK267639]  viability at 28.5 h, 10 µM                 %        88.4
2  CN(Cc1c(C2CCNCC2)[nH]c2ncccc12)C1CCCCC1 [CBK285079]  viability at 28.5 h, 10 µM                 %        93.3
3  CC(C)N(C(=O)CN1C(=O)N2CCN=C2c2ccccc21)C(C)C [CBK284005]  viability at 28.5 h, 10 µM                 %          87

Enquiry: viability at 28.5 h, 10 µM for Nc1cc(O)n(Cc2ccco2)c(=S)n1 [CBK006010] ?
Return: 99.9

Enquiry: Dear colleague, I am looking for the recorded viability at 28.5 h, 10 µM of the following compound: CC(C)NC(=O)CN1CCC(Oc2nccnc2OCc2ccc(Cl)c(Cl)c2)CC1 [CBK153791]
Return: 92.2

###

# assay.remarks: in vitro
# test.settings: human, hela cells, % viability
measure.name: viability at 28.5 h, 10 µM (%)
Numbers only; they are read as %.

> print(dat)
                                   molecule                measure.name  measurement.unit  meas.value
1  CCOC(=O)CN1CCCN(c2c(F)cc(C#N)cc2F)CC1 [CBK304148]  viability at 28.5 h, 10 µM                 %        86.9
2  CCC(=O)N1CCN(CCCC(=O)c2ccc(F)cc2)CC1 [CBK025017C]  viability at 28.5 h, 10 µM                 %         108

Enquiry: What value of measured viability at 28.5 h, 10 µM is listed for Cc1cc2c(N3CCCC3)nc(N3CCCC3)nc2n1C [CBK016633C] ?
Return: 101

Enquiry: # lookup: viability at 28.5 h, 10 µM of Cc1nc2ccc(C(=O)N3CCN(C)CC3)cn2c1N(C)C(=O)CCc1ccccc1 [CBK146786]
Return: 95.3

Enquiry: Find the recorded viability at 28.5 h, 10 µM belonging to CSc1nnc(-c2ccc(Br)cc2)o1 [CBK026502] and report it.
Return: 91.9

Enquiry: I have this molecule here, CC1(C)CC(=NNC(=O)CCc2cc(C(C)(C)C)c(O)c(C(C)(C)C)c2)CC(C)(C)N1 [CBK261952] , and I need its recorded viability at 28.5 h, 10 µM.
Return: 108

Enquiry: Param item = Cc1cc(C)n2ncc(C(=O)N3CCCCC3c3ccccn3)c2n1 (centres unmarked) [CBK307257] ; retrieve measured viability at 28.5 h, 10 µM.
Return: 90.4
